Test target: cathepsin D (Homo sapiens, UniProt P07339)
Sequence (P07339 65-412, species assumed): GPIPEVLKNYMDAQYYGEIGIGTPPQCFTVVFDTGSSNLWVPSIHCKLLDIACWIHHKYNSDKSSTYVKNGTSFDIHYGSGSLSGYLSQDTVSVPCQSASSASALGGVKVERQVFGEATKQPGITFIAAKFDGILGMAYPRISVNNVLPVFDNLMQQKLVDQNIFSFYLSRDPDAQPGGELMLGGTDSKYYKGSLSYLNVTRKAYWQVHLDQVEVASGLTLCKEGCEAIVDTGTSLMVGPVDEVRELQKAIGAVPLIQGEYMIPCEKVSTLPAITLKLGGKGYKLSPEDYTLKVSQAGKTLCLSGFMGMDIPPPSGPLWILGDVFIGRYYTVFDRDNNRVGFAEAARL
Assay overview: Inhibition of cathepsin D activity (substrate peptide ELDLAVEFWHDR, MALDI-TOF)
Type: biochemical
Details: cathepsin D, pH 4.1, 37 degrees C.; read-out: CDKi
pKi: −log10 of the molar value.

{"columns": ["Compound string", "pKi"],
 "data": [
  ["Cc1csc([C@H]2CCCN2C(=O)c2cccc(C(=O)N[C@@H](Cc3ccccc3)[C@H](O)CNCc3cncc(C(C)C)c3)c2)n1", "6.30 to 6.52"],
  ["Cc1csc([C@H]2CCCN2C(=O)c2cccc(C(=O)N[C@@H](Cc3ccccc3)[C@H](O)CNCc3cccc(C(C)(C)C)c3)c2)n1", "< 6.30"],
  ["Cc1cc(C(=O)N[C@@H](Cc2ccccc2)[C@H](O)CNCc2cccc(C(F)(F)F)c2)cc(C(=O)N2CCC[C@@H]2c2nc(C)cs2)c1", "< 6.30"],
  ["Cc1csc([C@H]2CCCN2C(=O)c2cccc(C(=O)N[C@@H](Cc3ccccc3)[C@H](O)CNCc3cccc(C(F)(F)F)c3)c2)n1", "< 6.30"],
  ["Cc1cc(C(=O)N[C@@H](Cc2ccccc2)[C@H](O)CNCc2cccc(C(C)(C)C)c2)cc(C(=O)N2CCC[C@@H]2c2nc(C)cs2)c1", "> 6.52"],
  ["COc1cccc(CNC[C@@H](O)[C@H](Cc2ccccc2)NC(=O)c2cccc(C(=O)N3COC[C@@H]3c3nc(C)cs3)c2)c1", "> 6.52"],
  ["COc1cccc(CNC[C@@H](O)[C@H](Cc2ccccc2)NC(=O)c2cc(C)cc(C(=O)N3CCC[C@@H]3c3nc(C)cs3)c2)c1", "6.30 to 6.52"]
]}
